Reported EC50 values follow for various molecules
test: Induction of interferon gamma production in human Vgamma9Vdelta2 T cells pretreated with K562 cells followed by compound washout and cocultured with Vgamma9Vdelta2 T cells and measured after 15 mins by ELISA; type: functional, cell-based; settings: Vgamma9Vdelta2 T cell
reported.metric: EC50

{"columns": ["molecule", "endpoint.result"],
 "data": [
  ["COC(=O)[C@@H](NP(=O)(CC/C=C(\\C)CO)N[C@H](C(=O)OC)C(C)C)C(C)C", "14 µM"],
  ["CCOC(=O)CNP(=O)(CC/C=C(\\C)CO)NCC(=O)OCC", "23 µM"],
  ["C/C(=C\\CCP(=O)(OCOC(=O)C(C)(C)C)OCOC(=O)C(C)(C)C)CO", "0.043 µM"],
  ["CCOC(=O)CNP(=O)(CC/C=C(\\C)CO)Oc1ccccc1 (racemic)", "1.5 µM"]
]}

* * *

As shown below, each of these compounds has a reported IC50 value.
test system: K562; assay: Cytotoxicity against human K562 cells assessed as inhibition of cell growth incubated for 72 hrs; assay type: functional, cell-based; details: K562, 72 h
reported.metric: IC50

{"columns": ["compound", "endpoint.result"],
 "data": [
  ["C/C(=C\\CCP(=O)(OCOC(=O)C(C)(C)C)OCOC(=O)C(C)(C)C)CO", "> 100 µM"],
  ["CCOC(=O)CNP(=O)(CC/C=C(\\C)CO)Oc1ccccc1 (racemic)", "> 100 µM"],
  ["COC(=O)[C@@H](NP(=O)(CC/C=C(\\C)CO)N[C@H](C(=O)OC)C(C)C)C(C)C", "10 µM"],
  ["CCOC(=O)CNP(=O)(CC/C=C(\\C)CO)NCC(=O)OCC", "> 100 µM"]
]}

* * *

experiment: Stability of the compound in 50% plasma (unknown origin) in PBS assessed as parent compound remaining measured after 24 hrs; format: ADME, cell-free; details: unidentified
Strictly below 90% in Stability: rule met. Otherwise: rule not met.

{"columns": ["smiles.structure", "group"],
 "data": [
  ["CCOC(=O)CNP(=O)(CC/C=C(\\C)CO)NCC(=O)OCC", "rule met"],
  ["CCOC(=O)[C@H](C)NP(=O)(CCC=C(C)C)N[C@@H](C)C(=O)OCC", "rule met"],
  ["COC(=O)[C@@H](NP(=O)(CCC=C(C)C)N[C@H](C(=O)OC)C(C)C)C(C)C", "rule not met"],
  ["COC(=O)[C@@H](NP(=O)(CC/C=C(\\C)CO)N[C@H](C(=O)OC)C(C)C)C(C)C", "rule met"],
  ["CCOC(=O)CNP(=O)(CCC=C(C)C)NCC(=O)OCC", "rule met"]
]}

* * *

test: Induction of interferon gamma production in human Vgamma9Vdelta2 T cells pretreated with K562 cells followed by compound washout and cocultured with Vgamma9Vdelta2 T cells and measured after 240 mins by ELISA; type: functional, cell-based; details: Vgamma9Vdelta2 T cell
pEC50: −log10 of the molar value.

{"columns": ["compound", "pEC50"],
 "data": [
  ["CCOC(=O)CNP(=O)(CC/C=C(\\C)CO)Oc1ccccc1 (racemic)", 7.29],
  ["C/C(=C\\CCP(=O)(OCOC(=O)C(C)(C)C)OCOC(=O)C(C)(C)C)CO", 7.62],
  ["CCOC(=O)CNP(=O)(CC/C=C(\\C)CO)NCC(=O)OCC", 5.80],
  ["COC(=O)[C@@H](NP(=O)(CC/C=C(\\C)CO)N[C@H](C(=O)OC)C(C)C)C(C)C", 5.72]
]}
